test: yeast display, Sf9 membrane polyspecificity reagent, FACS + sequencing; frameworks hold sequencing errors
measured.parameter: polyreactivity (PSR sort gate)

Reference set, count: 4
QDQLVESGGGLDQAGGSLRLSCAASGRIFALNAMGWYRQAPGKERELVATIRWRGGSTYYADSVKGRFTISRDYAKNTVYLQMNSLKPEDTAVYYCASYSGNRRTYDYWGQGTQVTVSS
high polyreactivity
QVQLVESGGGLVQAGGSLRLSCAASGIIFDSYAMGWYRQAPGKERELVAAITSDSGRTYYADSVKGRFTISRDNAKKTVYLQMNSLKPEYTAVYYFAKRWDGPYDYWGQGTQVTVSS
low polyreactivity
QVKLVESGGGLVQAGGSLRLSCAASGSTFHLNAMGWYRPAPGKDRELVAANSWDGSSTSYADSVKGRFTISRDNAKNTVYLQMNSLKPEDTAVYFCAADDTLDRVPTTFIDGSPGYGYWGQGTQVTVSS
low polyreactivity
QVQLVESGGGLVQAGGSLRLSCAASGRTFAGYVMGWYRQAPGKERELVAAISTSGGSTYYADSVKGRFTISRDNAKNTVYLQMNSLKPEDTAVYYCNVYLKHRYYNQMDYWGQGTQVTVSS
high polyreactivity

// switching to the query sequence
Recorded polyreactivity (PSR sort gate) (sequence QVQLVESGGGLVQAGGSLRLSCAASGFTFRYYAMGWYRQAPGKERELVASITSGGSTNYADSVKGRFTISRDNAKNTVYLQMNSLKPEDTAVYYCAAQPYKGTGYDYWGQGTQVTVSS ): high polyreactivity

###

assay: yeast display, Sf9 membrane polyspecificity reagent, FACS + sequencing; frameworks hold sequencing errors
measured.parameter: polyreactivity (PSR sort gate)

Observe how each entry below is paired with its result.
QVQLVESGGGLVQAGGSLRLTSAGSGFTFTIYAMGWYRQAPGKERELVATISGRAGRTYYADSVKGRFTISRDNAKNTVYLQMNSLKPEDTAVYYCNAGQWRYPGLYYYWGQGSQVTVSS
high polyreactivity
QDQLVESGGGLVQAGGSLRLSCASSGFTFNGYAMGWYRQAPGKERELVAAINISGGSTYYADSVKGRFTISRDNAKNTVYLQMNSLNPEDTAVYYCAARLWGKRYSYRYGYWGQGTQVTVSS
high polyreactivity
QVQLVESGGGLVQAGGSLRLSCAASGFSFDTYAMGWYRQAPGKERELVAVISRGGSTYYADSVKGRFTISRDNAKNTVYLQMNSLKPEDTAVYYCAARSHGSYAYQYGYWGQGTQVTVSS
high polyreactivity
QVQLVESGGGLVQAGGSLRLSCAASGSTFPGNAMGWYRQAPGKEREFVAVISRSGGGTYYADSVKGRFTISRDNAKNTVYLQMNSLKPEDTAVYYCAARRGLWGYGTGNGYWGQGTQVTVSS
low polyreactivity

Measured polyreactivity (PSR sort gate) of QFQLVESGGGLVQAGGSLRLSCAASGITFVDNAMGWYRQAPGKERELVAAITNSGSTYADSVKGRFTISRDNAKNTVYVQMNSLKPEDTAVYYCAADYYILLTKSDRLFGSWGQGTQVTVSS : low polyreactivity

###

assay: yeast display, Sf9 membrane polyspecificity reagent, FACS + sequencing; frameworks hold sequencing errors
measured.parameter: polyreactivity (PSR sort gate)

QVQLVESGGVLVQAGGSLRLSCAASGSIFTYYAMGWYRQAPGKEREFVAAISRSGGSTYYADSVKGRFTISRDNANNTVYLQMNSLKPEDTAVYYCNAYSYSDAGDDGDYWGQGTQVTVSS
low polyreactivity
QVQLVESGGGLVQAGGSLRLSCAASGSTFDVYDMGWYRQAPGKERELVASISWDGDRTYYADSVKGRFTISRDNAKNTVYLQMNSLKPEDTAVYYCAVDSASDTIYDYWGQGTQVTVSS
low polyreactivity
QVQLVESGGGLVQAGGSLRLSCAASGFIFAVNAMGWYRQAPGKERELVAAISGRGGRTYYADSVKGRFTISRDYAKNTVYLQMNSLKPEDTAVYYCAARSYQYSYSFYWGQGTQVTVSS
high polyreactivity
QVQLVESGGGLVQAGGSLRLSCAASGSIFLENTMGWYRQAPGKERELVAAITSSGDSTYADSVKGRFTISRDNAKNTVYLQMNSLKPEDTAVYYCNKDYDDIAPTRAVLDRYDYWGQGTQVTVSS
low polyreactivity
QVQLVESGGGLVQAGGRLRLSCAASGFTFTRYTMGWYRQAPGKERELVARITRSGASTYYADSVKGRFTISRDNAKNTVYLQMNSLKPEDTAVYYCAADTWSYTTRYYYWGQGTQVTVSS
high polyreactivity

// next item, polyreactivity (PSR sort gate) requested
QVQLVESGGGLVQAGGSLRLSCAASGRIFGAYAMGWYRQAPGKERELVASITGRGTSTYYADSVKGRFTISRDNAKNTVYLQMNSLKPEDSAVYYCAADKTVRSSNYDYWGQGTQVTVSS has a reported polyreactivity (PSR sort gate) of low polyreactivity

###

experiment: yeast display, Sf9 membrane polyspecificity reagent, FACS + sequencing; frameworks hold sequencing errors
measured.parameter: polyreactivity (PSR sort gate)

QVQLVESGGGLEQAGGRLRLSCAASGFTFDFYAMGWYRQAPGKERQLVAAISKNDGTTYYADSVKGRFTISRDNAKNTVYLQMNSLKPEDTAVYYCAAESGYPVYTYVSSGDYWGQGTQVTVSS
low polyreactivity
QVQLVESGGGLVQAGGSLRLSCAASGSIFKINTMGWYRQAPRQERELVAAISKRGGSTYYADSVKGRFTISRDNAKITVYLQMNSLKPDDTAVYYCAAREFYKYYYWGQVTQVTVSS
high polyreactivity
QVQLVESGGGLVQAGGSLRISCAASGRSFGVNAMGWYRQAPGKERELVAVISSGGSTYYADSVKVRFTISRDNAKNTVYLQMNSLKPEDTAVYYCNAVFGRWFPYNLSDYWGQGTQVTVSS
low polyreactivity
QVQLVESGGGLVQAGGSLRLSCAASGFTFRWYAMGWYRQAPGKERELVAAISSGGGSTYYADSVKGRFTISRDNAKITVYLQMNSLKPEDTAVYYCNSRGTRIASGHYYWGQGTQVTVSS
high polyreactivity
QVQLVESGGGLVQAGGSLRLSCAASGLTFQYNAMGWYRQAPGKERELVAANSRSGGRTYYADSVKGRFTISRDNAKNTVYLQLNSLKPEDTAVYYCAARDRSTRSDLTSYSVLYGNYYWGQGTQVTVSS
high polyreactivity
QVQLVESGGGLVQAGGILRLSCAASGRIFGSYAMGWYRQAPGKERELVAVITKRGDSTYYADSVKGRFTISRDNAKNTVYLQMNSLKPEDTAVYYCNARVYPGYSFWAVFGYDYWGQGTQVTVSS
low polyreactivity

According to the records, this sequence QVQLVESGGGLVQAGGSLRLSCAASGFTFRANGMGWYRQAPGKERELVATITSGGTTNYADSVKGRLTISRDNAKNTVYLQMNSLKPEDTAVYYCNAGSVSDRQMDYWGQGTQVTVSS displays polyreactivity (PSR sort gate) of low polyreactivity

Looking up QVQLVESGGCIVQAGGSLRLSCADSGSIFDWYAMVWYRQAPGKERELVAAINEGGGSTYYADSVKGRFTISRDNANNTVYLQMNSLKPEDHAVYYCAAGDYYLQDNYWGQGTQVTVSS , I see its polyreactivity (PSR sort gate) listed as low polyreactivity

Sample QVQLGESGGGLVQAGGSLRLSCAASGNTFGTYAMGWYRHAPGKERELVAAITWRGGRTTYADSVKGRFTISRDNAKNTVYLQMIRLIPEDTAVYYCAAVIHWWYATYDYWGQGTQVTVSS ; polyreactivity (PSR sort gate) observed: high polyreactivity

Looking up QVQLVESGGGLVQAGGRLRLSCAASGRTFDTNAMGWYRQAPGKQRELVAVITARGGNTSYADSVKGRFTISRDYAKNTVYLLMNRLKPEDTAVYLCAARVYRAPWTYVEGNYWGQGTQVTVSS , I see its polyreactivity (PSR sort gate) listed as low polyreactivity

get_value(item= QVQLVESCGGLVQAGGSIRLRCAATGSIIYVNPMGWYRQAPWKEREMVAAITGGASTNYADSVKGRFTISRDNAKNTVYLQMNLLKPEDTAVYYCAVDPVGHATRVWTYQYDYWGQGNQVTVSS , readout=polyreactivity (PSR sort gate)) returns low polyreactivity

###

experiment: yeast display, Sf9 membrane polyspecificity reagent, FACS + sequencing; frameworks hold sequencing errors
measured.parameter: polyreactivity (PSR sort gate)

QVQLVESGGGLVQAGGSLRLSCAASGFTFAYNAMGWYRQAPGKERELVAAITVSGGRTYYADSVKGRFTISRDNAKNTVYLQMNSLKPEDTAVYYCAATVRVRTNSWMDYWGQGTQVTVSS
low polyreactivity
QVHLVESGGGLVQAGRSLRLSCAASGFIFKPYAMVRYRQAPGKERELVAAITVNGGTTYYADSVKARFTISRDNAKNTVYLQMNSLKPEDTAVYYCNRGRPGGPSWYHYDYWGQGTQVTVSS
high polyreactivity
QVQLVESGGGLVQAGGSLRLSCAASGLTFGLNAMGWYRQAPGKEREVVAAITWSGGSTYYADSVKGRFTISRDNAKNTVYLQMNSLKPEDTAVYYCATDNWSVNGGYNYWGQGTHVTVSS
low polyreactivity
QVQLVESGGGLVQSGGSLRLSCAASGRTFLTYVMGWYRPAPGKERELVAAITRGGRTNYAHSEKGRFTISRDNAKNTVDLQMTSLKPEDTAVYYCARDDTPRYDYWGQGTQVTVSS
low polyreactivity
QVQLVESGGGLVQAGGSLRLSCAASGFTFVRYAMGWYRQAPGKERELVAAISRSSGSTYYADSVKGRFTISRDNAKNTVYLQMNSLKPEDTAVYYCARRYGRYSGTYDYWGQGTQVTVSS
high polyreactivity

Entry QVQLVESGGGLVQAGGSLRLSCAASGSTFWDYAMGWYRQAPGKERELVAAISSGGSTNYADSVKGRFTISRDNAKNTVYLQMNSLKPEDTAVYYCAVGYGGYYYWGQGTQVTVSS ; polyreactivity (PSR sort gate) = high polyreactivity

QVQLVESGGGLVQAGGSLRLSCAASGSTFSRNAMGWSRQAPGKERELVAAITRSGGSTYYADSVKGRFSISRDNAKNTVYLQMNSLKPEDTAVYYCAVLSVRRSYNYWGQGTQVTVSS has a reported polyreactivity (PSR sort gate) of high polyreactivity
